- Experimental Target: RIIβ-S112A holoenzyme (Rattus norvegicus, UniProt P12369, S112A)
- Sequence (P12369 108-402 S112A): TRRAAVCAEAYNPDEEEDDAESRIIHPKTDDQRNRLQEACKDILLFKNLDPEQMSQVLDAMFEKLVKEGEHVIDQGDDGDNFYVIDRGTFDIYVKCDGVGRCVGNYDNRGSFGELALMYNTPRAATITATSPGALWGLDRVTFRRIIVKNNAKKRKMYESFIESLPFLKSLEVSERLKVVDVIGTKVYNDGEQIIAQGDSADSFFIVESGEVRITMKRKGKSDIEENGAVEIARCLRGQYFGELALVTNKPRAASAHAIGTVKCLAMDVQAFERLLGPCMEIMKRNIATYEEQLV
- Experimental Context: read-out: RIIβ EC50; LiReC assay, RIIβ-S112A holoenzyme, 6 nM PKA holoenzyme, 3 nM TR-IP20
Just a reminder that ties go to FALSE: only EC50 strictly below 100 nM counts as TRUE.

* CCCN(CCC)c1ncnc2c1ncn2[C@@H]1O[C@@H]2COP(=O)(O)O[C@H]2[C@H]1O [HE33] | TRUE
* O=[P@]1(S)OC[C@H]2O[C@@H](n3cnc4cc(Cl)c(Cl)cc43)[C@H](O)[C@@H]2O1 [5,6 DCl BIMPS] | FALSE
* CC(C)(C)NC(=O)Nc1ncnc2c1ncn2[C@@H]1O[C@@H]2COP(=O)(O)O[C@H]2[C@H]1O [6-MBC cAMP] | TRUE
* CCCCCCNc1nc2c(N)ncnc2n1[C@@H]1O[C@@H]2COP(=O)(O)OC2[C@@H]1O (some centres unmarked) [8-HA cAMP] | FALSE
* Nc1ncnc2c1ncn2[C@@H]1O[C@@H]2COP(O)(=S)O[C@H]2[C@H]1O (some centres unmarked) [Sp cAMP] | FALSE
* Nc1ncnc2c1nc(N1CCCCC1)n2[C@@H]1O[C@@H]2COP(O)(=S)O[C@@H]2C1O (some centres unmarked) [Sp-8-PIP cAMP] | FALSE
* CNc1nc2c(N)ncnc2n1[C@@H]1O[C@@H]2COP(=O)(O)O[C@H]2[C@H]1O [8-MA cAMP] | FALSE
* Nc1ncnc2c1nc(N1CCCCC1)n2[C@@H]1O[C@@H]2COP(=O)(O)O[C@H]2[C@H]1O [8-PIP cAMP] | FALSE
* O=P1(O)OC[C@H]2O[C@@H](n3cnc4c(Nc5ccccc5)ncnc43)[C@@H](O)C2O1 (some centres unmarked) [6-Phe cAMP] | TRUE
* CCCC(=O)Nc1ncnc2c1ncn2[C@@H]1O[C@@H]2COP(=O)(O)O[C@H]2[C@H]1O [6-MB cAMP] | TRUE
* NCCCCCCNc1nc2c(N)ncnc2n1[C@@H]1O[C@@H]2COP(=O)(O)O[C@H]2[C@H]1O [8-AHA cAMP] | FALSE
* Nc1ncnc2c1nc(Sc1ccc(Cl)cc1)n2[C@@H]1O[C@@H]2CO[P@](=O)(S)O[C@H]2[C@H]1O [Sp-8-CPT cAMP] | TRUE
* O=P1(S)OCC2OC(n3cnc4cc(Cl)c(Cl)cc43)C(O)C2O1 (centres unmarked) [Sp-5,6-DCl BIMPS] | TRUE
* Nc1ncnc2c1nc(Br)n2[C@@H]1O[C@@H]2COP(=O)(O)O[C@H]2[C@H]1O [8-Br cAMP] | FALSE
* Nc1ncnc2c1nc(Cl)n2[C@@H]1O[C@@H]2COP(=O)(O)O[C@H]2[C@H]1O [8-Cl cAMP] | FALSE
* O=C(Nc1ncnc2c1ncn2[C@@H]1O[C@@H]2COP(=O)(O)OC2C1O)c1ccccc1 (stereo in doubt) [6-Bnz cAMP] | TRUE
* Nc1ncnc2c1nc(Br)n2[C@@H]1O[C@@H]2COP(O)(=S)O[C@H]2[C@H]1O (some centres unmarked) [Sp-8-B cAMP] | FALSE
* Nc1ncnc2c1nc(Sc1ccc(Cl)cc1)n2[C@@H]1O[C@@H]2COP(=O)(O)O[C@H]2[C@H]1O [8-CPT cAMP] | FALSE
* Nc1nc(Cl)nc2c1ncn2[C@@H]1O[C@@H]2COP(=O)(O)OC2[C@@H]1O (some centres unmarked) [2-Cl cAMP] | TRUE
* Nc1nc2c(ncn2[C@@H]2O[C@@H]3COP(=O)(O)O[C@H]3[C@H]2O)c(=O)[nH]1 [cGMP] | FALSE

###

- Experimental Target: PKA-RIα holoenzyme (Bos taurus, UniProt P00514)
- Sequence (P00514 92-380): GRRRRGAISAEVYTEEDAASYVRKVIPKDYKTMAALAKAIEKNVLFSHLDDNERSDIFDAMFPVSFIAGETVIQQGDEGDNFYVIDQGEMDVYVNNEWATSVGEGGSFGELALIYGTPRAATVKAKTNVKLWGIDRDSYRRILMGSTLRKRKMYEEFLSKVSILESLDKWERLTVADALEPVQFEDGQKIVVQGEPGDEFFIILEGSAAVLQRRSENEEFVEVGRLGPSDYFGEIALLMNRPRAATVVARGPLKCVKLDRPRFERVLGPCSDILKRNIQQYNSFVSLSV
- Experimental Context: read-out: RIα EC50; LiReC assay, 6 nM PKA holoenzyme, 3 nM TR-IP20
pEC50: −log10 of the molar value.
Test Readout: pEC50

- Nc1ncnc2c1nc(Cl)n2[C@@H]1O[C@@H]2COP(=O)(O)O[C@H]2[C@H]1O: 7.24
- Nc1ncnc2c1nc(Sc1ccc(Cl)cc1)n2[C@@H]1O[C@@H]2COP(=O)(O)O[C@H]2[C@H]1O: 7.48
- O=P1(O)OC[C@H]2O[C@@H](n3cnc4c(Nc5ccccc5)ncnc43)[C@@H](O)C2O1 (some centres unmarked): 7.04
- NCCCCCCNc1nc2c(N)ncnc2n1[C@@H]1O[C@@H]2COP(=O)(O)O[C@H]2[C@H]1O: 6.94
- Nc1nc2c(ncn2[C@@H]2O[C@@H]3COP(=O)(O)O[C@H]3[C@H]2O)c(=O)[nH]1: 4.82
- Nc1ncnc2c1nc(N1CCCCC1)n2[C@@H]1O[C@@H]2COP(=O)(O)O[C@H]2[C@H]1O: 5.99
- Nc1ncnc2c1ncn2[C@@H]1O[C@@H]2COP(O)(=S)O[C@H]2[C@H]1O (some centres unmarked): 5.80
- Nc1ncnc2c1nc(Sc1ccc(Cl)cc1)n2[C@@H]1O[C@@H]2CO[P@](=O)(S)O[C@H]2[C@H]1O: 6.47

###

- Experimental Target: PKA-RIα holoenzyme (Bos taurus)
- Experimental Context: read-out: RIα EC50; LiReC assay, 6 nM PKA holoenzyme, 3 nM TR-IP20
Test Readout: EC50 (nM)

* O=C(Nc1ncnc2c1ncn2[C@@H]1O[C@@H]2COP(=O)(O)OC2C1O)c1ccccc1 (stereo in doubt) | 170
* Nc1nc(Cl)nc2c1ncn2[C@@H]1O[C@@H]2COP(=O)(O)OC2[C@@H]1O (some centres unmarked) | 42
* CNc1nc2c(N)ncnc2n1[C@@H]1O[C@@H]2COP(=O)(O)O[C@H]2[C@H]1O | 102
* Nc1ncnc2c1nc(N1CCCCC1)n2[C@@H]1O[C@@H]2COP(O)(=S)O[C@@H]2C1O (some centres unmarked) | 5050
* Nc1ncnc2c1nc(Br)n2[C@@H]1O[C@@H]2COP(O)(=S)O[C@H]2[C@H]1O (some centres unmarked) | 1360
* CCCCCCNc1nc2c(N)ncnc2n1[C@@H]1O[C@@H]2COP(=O)(O)OC2[C@@H]1O (some centres unmarked) | 358
* CCCN(CCC)c1ncnc2c1ncn2[C@@H]1O[C@@H]2COP(=O)(O)O[C@H]2[C@H]1O | 414
* CC(C)(C)NC(=O)Nc1ncnc2c1ncn2[C@@H]1O[C@@H]2COP(=O)(O)O[C@H]2[C@H]1O | 289

###

# reported EC50; entries follow
- Experimental Target: PKA-RIα holoenzyme (Bos taurus, UniProt P00514)
- Experimental Context: read-out: RIα EC50; LiReC assay, 6 nM PKA holoenzyme, 3 nM TR-IP20
Test Readout: EC50

- O=[P@]1(S)OC[C@H]2O[C@@H](n3cnc4cc(Cl)c(Cl)cc43)[C@H](O)[C@@H]2O1: 270 nM
- O=P1(S)OCC2OC(n3cnc4cc(Cl)c(Cl)cc43)C(O)C2O1 (stereo not shown): 344 nM
- CCCC(=O)Nc1ncnc2c1ncn2[C@@H]1O[C@@H]2COP(=O)(O)O[C@H]2[C@H]1O: 140 nM
- Nc1ncnc2c1nc(Br)n2[C@@H]1O[C@@H]2COP(=O)(O)O[C@H]2[C@H]1O: 81 nM
